Value source: the supplement of paper PMC12783771

Exercise: for every item that follows, state its recorded sfGFP reporter fluorescence.
B1: library; numbered along this chain (parent)
chain: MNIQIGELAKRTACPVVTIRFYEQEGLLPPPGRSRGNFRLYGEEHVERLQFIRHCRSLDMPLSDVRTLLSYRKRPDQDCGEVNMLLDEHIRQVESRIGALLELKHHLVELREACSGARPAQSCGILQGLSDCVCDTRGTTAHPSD

variants of: B1; assay: sfGFP reporter fluorescence (15 h) (µM FITC); higher = stronger transcriptional activation; settings: library round: Round 0; ligand: 1 µM Pb

Below: 8 variants and their reported sfGFP reporter fluorescence.
{"Change": "C55A", "Recorded Metric": "sfGFP reporter fluorescence", "Assay Value": 0.126}
{"Change": "L107C G128I", "Recorded Metric": "sfGFP reporter fluorescence", "Assay Value": 3.12}
{"Change": "L126M", "Recorded Metric": "sfGFP reporter fluorescence", "Assay Value": 0.0596}
{"Change": "V82Y", "Recorded Metric": "sfGFP reporter fluorescence", "Assay Value": 0.0586}
{"Change": "K104Q", "Recorded Metric": "sfGFP reporter fluorescence", "Assay Value": 0.0832}
{"Change": "D64W", "Recorded Metric": "sfGFP reporter fluorescence", "Assay Value": 0.167}
{"Change": "D131T", "Recorded Metric": "sfGFP reporter fluorescence", "Assay Value": 0.0914}
{"Change": "P61N D64K L107C G128M", "Recorded Metric": "sfGFP reporter fluorescence", "Assay Value": 5.3}

For the 4 variants below, give their sfGFP reporter fluorescence values.
1. V46R
2. F21A
3. G128R
4. C79I

1: 0.087; 2: 0.0541; 3: 0.316; 4: 0.0535
